Where a name gives a salt, the structure may show the parent alone.
Overview of reported melting point across a group of compounds:
readoutKind: melting point

# compound, reportedResult
measured = [
    ("Cc1c(C)c(C)c(Oc2nnc(Cl)cc2O)c(C)c1C [Compound No. 2614]", "238 to 240 °C (dec.)"),
    ("Oc1cc(Cl)nnc1Oc1c(Cl)cccc1C1CC1 [Compound No. 740]", "224 to 225 °C"),
    ("Oc1cc(Cl)nnc1Oc1c(Br)cccc1C1CC1 [Compound No. 762]", "230 to 232 °C"),
    ("Cn1ccc2c(Oc3nnc(Cl)cc3O)cccc21 [Compound No. 2565]", "203 to 206 °C"),
    ("Oc1cc(Cl)nnc1Oc1ccccc1-c1ccsc1 [Compound No. 361]", "207 to 209 °C"),
    ("Cc1ccccc1Oc1nnc(Cl)cc1OC(=O)OCC(C)C [Compound No. 1757]", "46 to 47 °C"),
    ("CC(C)c1cccc(Oc2nnc(Cl)cc2O)c1 [Compound No. 415]", "176 to 177 °C"),
    ("Cc1ccccc1Oc1nnc(Cl)cc1OS(=O)(=O)c1ccc(Cl)cc1 [Compound No. 2198]", "93 to 94 °C"),
    ("CC(=O)Oc1cc(Cl)nnc1Oc1c(C)cccc1C1CC1 [Compound No. 1151]", "98 to 101 °C"),
    ("Cc1ccccc1Oc1nnc(Cl)cc1OC(=O)c1ccc(Cl)cc1Cl [Compound No. 1603]", "81 to 82.5 °C"),
    ("CCc1cccc(CC)c1Oc1nnc(Cl)cc1O [Compound No. 846]", "181 to 185 °C"),
    ("Cc1ccc(S(=O)(=O)Oc2cc(Cl)nnc2Oc2cccc3ccccc23)cc1 [Compound No. 2240]", "92 to 94 °C"),
    ("CC(C)(C)c1ccccc1Oc1nnc(Cl)cc1O [Compound No. 136]", "215 to 216 °C"),
    ("Oc1cc(Cl)nnc1Oc1ccc(Cl)cc1Cl [Compound No. 552]", "233 to 237 °C"),
    ("COc1ccccc1C(=O)Oc1cc(Cl)nnc1Oc1ccccc1C [Compound No. 1509]", "114 to 116 °C"),
    ("Cc1ccc(S(=O)(=O)Oc2cc(Cl)nnc2Oc2ccc(Br)cc2C(C)C)cc1 [Compound No. 2248]", "119 to 122 °C"),
    ("Cc1c(F)ccc(C2CC2)c1Oc1nnc(Cl)cc1O [Compound No. 1052]", "230 to 231 °C"),
    ("O=S(=O)(Oc1cc(Cl)nnc1Oc1ccccc1C1CC1)C(F)(F)F (as salt: methanesulfonate) [Compound No. 2081]", "54 to 61 °C"),
    ("Oc1cc(Cl)nnc1Oc1ccccc1CC1CC1 [Compound No. 311]", "165 to 168 °C"),
]

* * *

Overview of reported melting point across a group of compounds:

# querySmiles, melting point
measured = [
    ("Oc1cc(Cl)nnc1Oc1cccc2c1CCCC2", "232 to 237 °C"),
    ("C[Si](C)(C)c1ccc(Oc2nnc(Cl)cc2OC(=O)c2ccccc2)cc1", "100 to 102 °C"),
    ("CCCc1cccc(F)c1Oc1nnc(Cl)cc1O", "134 to 137 °C"),
    ("CC(C)(C)c1cccc(Br)c1Oc1nnc(Cl)cc1O", "240 to 247 °C"),
    ("C=C(C)c1cccc(C)c1Oc1nnc(Cl)cc1O", "183 to 186 °C"),
    ("CCCS(=O)(=O)Oc1cc(Cl)nnc1Oc1ccccc1C", "72 to 73 °C"),
    ("Cc1ccc(Cl)cc1Oc1nnc(Cl)cc1O", "174 to 180 °C"),
    ("Cc1ccccc1Oc1nnc(Cl)c(Oc2ccccc2C)c1O", "110 to 115 °C"),
    ("Cc1ccc(C(=O)Oc2cc(Cl)nnc2Oc2ccccc2C)cc1", "105 to 108 °C"),
    ("Oc1cc(Cl)nnc1Oc1c(C2CC2)cccc1C1CC1", "232 to 234 °C"),
    ("O=[N+]([O-])c1cccc(Oc2nnc(Cl)cc2O)c1", "217 to 219 °C"),
    ("COc1ccc(C2CC2)c(Oc2nnc(Cl)cc2O)c1C", "250 to 253 °C"),
    ("CCCCCCc1ccccc1Oc1nnc(Cl)cc1O", "118 to 118.5 °C"),
    ("Cc1cccc(C2CC2)c1Oc1nnc(Cl)cc1OC(=O)C(C)(C)C", "84 to 87 °C"),
    ("CON(C)C(=O)Oc1cc(Cl)nnc1Oc1c(C)cccc1C1CC1", "63 to 64.5 °C"),
    ("Cc1cccc(Oc2nnc(Cl)cc2O)c1", "205 to 208 °C"),
    ("Cc1cc(C)c(C)c(Oc2nnc(Cl)cc2O)c1", "223 to 224 °C"),
    ("COCC1(c2ccccc2Oc2nnc(Cl)cc2O)CC1", "187 to 190 °C"),
    ("COCc1ccccc1Oc1nnc(Cl)cc1O", "211 to 212 °C"),
    ("CCc1cc(I)cc(I)c1Oc1nnc(Cl)cc1O", "142 to 144 °C"),
]

Measured values drawn from patent US7964531B2 for this set.
